Origin of the recorded values: BigSolDB 2.1

conditions: in water, 293.3 K
Recorded Metric: solubility (mole fraction)
The answer should be a number; do not append a unit.

Can you share its solubility (mole fraction)? I mean this compound: `CO/N=C(/C(=O)N[C@@H]1C(=O)N2C(C(=O)O)=C(COC(N)=O)CS[C@H]12)c1ccco1`
6e-05

----------
settings: in isopropanol, 288.3 K
Recorded Metric: solubility (mole fraction)
The answer should be a number; do not append a unit.

Can you share its solubility (mole fraction)? I mean this compound: `CO/N=C(/C(=O)N[C@@H]1C(=O)N2C(C(=O)O)=C(COC(N)=O)CS[C@H]12)c1ccco1`
0.00011

----------
details: in ethanol, 303.5 K
Recorded Metric: solubility (mole fraction)

Can you share its solubility (mole fraction)? I mean this compound: `CO/N=C(/C(=O)N[C@@H]1C(=O)N2C(C(=O)O)=C(COC(N)=O)CS[C@H]12)c1ccco1`
0.00052
